# PROTOCOL NOTES: in vitro
# TEST CONDITIONS: hepatocytes
Classify: condition met when hepatocyte CLint is strictly less than 40 µL/min/1e6 cells; condition not met when hepatocyte CLint is not.

Please review the following examples before continuing.
Cc1ccccc1-n1c(Cn2cnc3c(N)ncnc32)nc2cccc(C)c2c1=O; condition met
CCCSc1ccc2nc(NC(=O)OC)[nH]c2c1 [ALBENDAZOLE]; condition not met
COc1ccc(CC(=O)NC(NC(=NC#N)Nc2ccccc2C)C(C)(C)C)cc1OC (stereo not drawn); condition met

Below 40 µL/min/1e6 cells on hepatocyte CLint? Entry Cc1cc(OCCCS(C)(=O)=O)cc(C)c1-c1cccc(COc2ccc3c(c2)OC[C@H]3CC(=O)O)c1 condition met

Say whether its hepatocyte CLint is strictly beneath 40 µL/min/1e6 cells. Entry: c1ccc(Nc2[nH]nnc2-c2ccccc2)cc1 condition not met
